target: glutathione-S-transferase (GST) tagged LXRbeta LBD (ligand binding domain) (Homo sapiens); construct: purchased Invitrogen pv4658.pps; assay: LanthaScreen TR-FRET Liver X Receptor Coactivator Assay, co-activator recruitment to LXRbeta LBD; assay type: biochemical; settings: efficacy at max dose, in relation to reference dual agonist T0901317; read-out: LXR beta Activity @ max dose (%)
Sequence (P55055 222-460 limits assumed): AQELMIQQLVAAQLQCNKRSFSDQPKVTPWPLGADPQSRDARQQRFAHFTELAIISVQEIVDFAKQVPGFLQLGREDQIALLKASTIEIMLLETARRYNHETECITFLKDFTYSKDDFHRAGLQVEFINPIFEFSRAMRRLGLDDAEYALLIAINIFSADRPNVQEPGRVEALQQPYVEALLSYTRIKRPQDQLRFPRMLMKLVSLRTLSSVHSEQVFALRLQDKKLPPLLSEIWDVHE
experimental-endpoint: Emax
In your response, put the unit directly after the numeric value.

Look up Emax for this molecule: CCOc1cccc([C@@](O)(C(=O)N2CCC(CC3CCN(c4ccc(C(=O)N(C)C)c(C)c4)CC3)CC2)C(F)(F)F)c1 [Example 2-151] 45%

Look up Emax for this molecule: CNC(=O)c1ccc(N2CCC(CC3CCN(C(=O)[C@](O)(c4cccc(OC)c4)C(F)(F)C(F)(F)F)CC3)CC2)nc1Cl [Example 7-138] 102%

Look up Emax for this molecule: Cc1cc(N2CCC(CC3(C)CCN(C(=O)[C@](O)(c4cccc(Cl)c4)C(F)(F)F)CC3)CC2)ccc1C(=O)N(C)C [Example 2-76] 46%

###

target: glutathione-S-transferase (GST) tagged LXRbeta LBD (ligand binding domain) (Homo sapiens); construct: purchased Invitrogen pv4658.pps; test: LanthaScreen TR-FRET Liver X Receptor Coactivator Assay, co-activator recruitment to LXRbeta LBD; format: biochemical; settings: potency (Inflection Point, IP), co-activator recruitment to LXRbeta LBD, in relation to T0901317; read-out: LXR beta IP
experimental-endpoint: EC50 (nM)
Give just the number in nM; leave the unit off.

Look up EC50 for this molecule: CC(C)N(C)C(=O)c1ccc(N2CCC(CC3CCN(C(=O)[C@](O)(c4ccccc4)C(F)(F)F)CC3)CC2)cc1Cl [Example 4-2] 29

Look up EC50 for this molecule: COc1cc(Cl)cc([C@@](O)(C(=O)N2CCC(C)(CC3CCN(c4ccc(C(=O)N(C)C)c(Cl)c4)CC3)CC2)C(F)(F)F)c1 [Example 2-48] 27

Look up EC50 for this molecule: CN(C)C(=O)c1ccc(N2CCC(CC3(C)CCN(C(=O)[C@](O)(c4cccc(Cl)c4)C(F)(F)F)CC3)CC2)nc1Cl [Example 7-47] 3

Look up EC50 for this molecule: COc1cccc([C@@](N)(C(=O)N2CCC(CC3CCN(c4ccc(C(=O)N(C)C)c(Cl)n4)CC3)CC2)C(F)(F)F)c1 [Example 7-114] 236

Look up EC50 for this molecule: CNC(=O)c1ccc(N2CCC(CC3CCN(C(=O)[C@](O)(c4cccc(OC(C)C)c4)C(F)(F)F)CC3)CC2)cc1Cl [Example 7-121] 21

Look up EC50 for this molecule: CCOc1cccc([C@@](O)(C(=O)N2CCC(CC3(C)CCN(c4ccc(C(=O)N(C)C)c(OC)n4)CC3)CC2)C(F)(F)F)c1 [Example 7-24] 92

Look up EC50 for this molecule: Cc1cc(N2CCC(CC3CCN(C(=O)[C@](O)(c4cccc(Cl)c4)C(F)(F)F)CC3)CC2)ccc1C(=O)N(C)C [Example 2-159] 21

Look up EC50 for this molecule: COc1cc(F)cc([C@](O)(C(=O)N2CCC(CC3CCN(c4ccc(C(=O)N(C)C)c(Cl)n4)CC3)CC2)C(F)(F)F)c1 [Example 7-102] 78

Look up EC50 for this molecule: CNC(=O)c1ccc(N2CCC(CC3CCN(C(=O)[C@](O)(c4ccccc4)C(F)(F)C(F)(F)F)CC3)CC2)nc1Cl [Example 7-131] 27

Look up EC50 for this molecule: CN(C)C(=O)c1ccc(N2CCC(CC3CCN(C(=O)[C@](O)(c4cccc(C5CC5)c4)C(F)(F)F)CC3)CC2)cc1Cl [Example 2-96] 4

Look up EC50 for this molecule: CC(C)(C(=O)N1CCC(CC2CCN(c3cccc(S(C)(=O)=O)c3)CC2)CC1)c1ccccc1 [Example 2-73] 223

Look up EC50 for this molecule: CNC(=O)c1ccc(N2CCC(CC3CCN(C(=O)[C@](O)(c4cc(Cl)cc(Cl)c4)C(F)(F)F)CC3)CC2)cc1Cl [Example 7-116] 13

Look up EC50 for this molecule: CN(C)C(=O)c1ccc(N2CCC(CC3CCN(C(=O)C(O)(c4ccnc(C(F)(F)F)c4)C(F)(F)F)CC3)CC2)cc1Cl (centres unmarked) [Example 2-40] 72

Look up EC50 for this molecule: CN(C)C(=O)c1ccc(N2CCC(CC3CN(C(=O)C(O)(c4cccc(Cl)c4)C(F)(F)F)C3)CC2)cc1Cl (centres unmarked) [Example 2-65] 17

Look up EC50 for this molecule: CN(C)C(=O)c1ccc(N2CCC(CC3CCN(C(=O)[C@](O)(c4ccccc4)C(F)F)CC3)CC2)cc1Cl [Example 2-166] 14

Look up EC50 for this molecule: COc1cccc([C@@](O)(C(=O)N2CC(CC3CCN(c4ccc(C(=O)N(C)C)c(Cl)c4)CC3)C2)C(F)F)c1 [Example 2-70] 92

Look up EC50 for this molecule: CN(C)C(=O)c1ccc(N2CCC(OC3CCN(C(=O)C(O)(c4cccc(C(F)(F)F)c4)C(F)(F)F)CC3)CC2)cc1Cl (centres unmarked) [Example 2-25] 28

Look up EC50 for this molecule: CCc1cccc([C@@](O)(C(=O)N2CCC(CC3CCN(c4ccc(C(=O)N(C)C)cc4)CC3)CC2)C(F)(F)F)c1 [Example 2-141] 74

Look up EC50 for this molecule: CN(C)C(=O)c1ccc(N2CCC(CC3CCN(C(=O)[C@](O)(c4cccc(Cl)c4)C(F)(F)F)CC3)CC2)nc1Cl [Example 7-69] 3

Look up EC50 for this molecule: CN(C)C(=O)c1ccc(N2CCC(CC3CCN(C(=O)C(O)(c4cccc5c4CCC5)C(F)(F)F)CC3)CC2)cc1Cl (centres unmarked) [Example 2-170] 27

Look up EC50 for this molecule: CNC(=O)c1ccc(N2CCC(CC3CCN(C(=O)[C@](O)(c4cccc(C(C)C)c4)C(F)(F)F)CC3)CC2)cc1Cl [Example 7-123] 17

Look up EC50 for this molecule: COc1cc(F)cc([C@@](O)(C(=O)N2CCC(CC3CCN(c4ccc(C(N)=O)c(Cl)c4)CC3)CC2)C(F)(F)F)c1 [Example 12-3] 5

Look up EC50 for this molecule: Cc1cccc(C(O)(C(=O)N2CCC(CC3CCN(c4ccc(C(=O)N(C)C)c(Cl)n4)CC3)CC2)C(F)(F)F)c1 (centres unmarked) [Example 7-55] 5

Look up EC50 for this molecule: CCOc1cccc([C@@](O)(C(=O)N2CCC(CC3(C)CCN(c4ccc(C(=O)N(C)C)c(C)n4)CC3)CC2)C(F)(F)F)c1 [Example 7-14] 105

Look up EC50 for this molecule: COc1cccc([C@@](O)(C(=O)N2CCC(CC3CN(c4ccc(C(=O)N(C)C)c(OC)n4)C3)CC2)C(F)(F)F)c1 [Example 7-23] 1230

Look up EC50 for this molecule: CC(C)C(O)(C(=O)N1CCC(CC2CCN(c3ccc(C(=O)N(C)C)c(Cl)c3)CC2)CC1)C(F)(F)F (centres unmarked) [Example 2-31] 784

###

Field: Emax. Provide a value for each of the compounds that follow.
target: glutathione-S-transferase (GST) tagged LXRalpha LBD (ligand binding domain) (Homo sapiens); construct: purchased Invitrogen pv4655; assay: LanthaScreen TR-FRET Liver X Receptor Coactivator Assay, co-activator recruitment to LXRalpha LBD; format: biochemical; details: efficacy at max dose, in relation to reference dual agonist T0901317; read-out: LXR alpha Activity @ max dose (%)
Sequence (Q13133 209-447 limits assumed): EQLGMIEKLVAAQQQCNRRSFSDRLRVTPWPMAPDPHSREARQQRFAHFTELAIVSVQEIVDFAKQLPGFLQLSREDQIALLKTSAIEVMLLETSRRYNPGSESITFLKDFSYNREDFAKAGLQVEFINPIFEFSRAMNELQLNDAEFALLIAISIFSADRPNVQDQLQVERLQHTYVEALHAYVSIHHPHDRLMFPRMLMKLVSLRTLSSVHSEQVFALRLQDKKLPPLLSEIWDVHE
Give just the number in %; leave the unit off.

Look up Emax for this compound: CN(C)C(=O)c1ccc(N2CCC(CC3CN(C(=O)[C@](O)(c4cc(F)cc(Cl)c4)C(F)(F)F)C3)CC2)nc1Cl [Example 7-40] 49

Look up Emax for this compound: CN(C)C(=O)c1ccc(N2CCC(CC3CCN(C(=O)[C@@](O)(c4ccccc4)C(F)(F)F)CC3)CC2)cc1 [Example 2-127] 9

Look up Emax for this compound: COc1cccc([C@@](O)(C(=O)N2CCC(CC3CN(c4ccc(C(=O)N(C)C)c(OC)n4)C3)CC2)C(F)(F)F)c1 [Example 7-23] 0

Look up Emax for this compound: CN(C)C(=O)c1ccc(N2CCC(CC3CCN(C(=O)C(O)(c4cccc(Cl)c4)C(F)(F)F)CC3)CC2)cc1Cl (stereo not shown) [Example 2-17] 24

Look up Emax for this compound: COc1cccc([C@@](O)(C(=O)N2CCC(SC3CCN(c4ccc(C(=O)N(C)C)c(Cl)n4)CC3)CC2)C(F)(F)F)c1 [Example 9-2] 7

Look up Emax for this compound: Cc1nc(N2CCC(CC3CCN(C(=O)[C@](O)(c4cc(Cl)cc(Cl)c4)C(F)(F)F)CC3)CC2)ccc1C(=O)N(C)C [Example 7-9] 3

Look up Emax for this compound: Cc1nc(N2CCC(CC3CCN(C(=O)[C@](O)(c4ccccc4)C(F)(F)F)CC3)CC2)ccc1C(=O)N(C)C [Example 7-1] 35
